Target: T1, TNF receptor 1 Fc fusion protein (R&D Systems) (human, UniProt P19438 30-211, limits assumed)
T1 construct: bought; also called recombinant TNF receptor 1 (p55); TNFR1-Fc; not shown: Fc part of the bought fusion protein; not described
T1 sequence: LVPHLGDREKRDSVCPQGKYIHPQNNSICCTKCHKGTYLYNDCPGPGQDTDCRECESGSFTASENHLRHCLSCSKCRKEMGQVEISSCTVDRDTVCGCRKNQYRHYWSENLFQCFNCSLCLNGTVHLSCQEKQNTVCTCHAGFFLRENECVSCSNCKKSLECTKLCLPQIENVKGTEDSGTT
Assay: receptor binding assay
Field: IC50. Provide a value for each of the binders that follow.
Just the number please, in µM, no unit attached.

Entry TAR2h-41 (other, anti-human TNFR1 dAb) EVQLLESGGGLVQPGGSLRLSCAASGFTFDKYQMGWVRQAPGKGLEWVSFIDSNGHHTYYADSVKGRFTISRDNSKNTLYLQMNSLRAEDTAVYYCAELDNLSITPFDYWGQGTLVTVSS has what IC50?
0.008

Entry TAR2h-16 (other, anti-human TNFR1 dAb) EVQLLESGGGLVQPGGSLRLSCAASGFTFGNYDMQWVRQAPGKGLEWVSSIDGTGGTTYYADSVKGRFTISRDNSKNTLYLQMNSLRAEDTAVYYCAQETNAFDYWGQGTLVTVSS has what IC50?
0.03

Entry TAR2h-29 (other, anti-human TNFR1 dAb) EVQLLESGGGLVQPGGSLRLSCAASGFTFATYNMGWVRQAPGKGLEWVSSIAWLGSETYYADSVKGRFTISRDNSKNTLYLQMNSLRAEDTAVYYCAKHCKAECTGDLFDYWGQGTLVTVSS has what IC50?
0.3

Entry TAR2h-17 (other, anti-human TNFR1 dAb) EVQLLESGGGLVQPGGSLRLSCAASGFTFGGYQMGWVRQAPGKGLEWVSFIDFTGAHTYYADSVKGRFTISRDNSKNTLYLQMNSLRAEDTAVYYCAKLSDDLTLPERFPFDYWGQGTLVTVSS has what IC50?
0.1
